Measured pKi, listed per entry.
Target: 5-hydroxytryptamine receptor 6 (Homo sapiens, UniProt P50406)
Sequence (P50406 whole entry): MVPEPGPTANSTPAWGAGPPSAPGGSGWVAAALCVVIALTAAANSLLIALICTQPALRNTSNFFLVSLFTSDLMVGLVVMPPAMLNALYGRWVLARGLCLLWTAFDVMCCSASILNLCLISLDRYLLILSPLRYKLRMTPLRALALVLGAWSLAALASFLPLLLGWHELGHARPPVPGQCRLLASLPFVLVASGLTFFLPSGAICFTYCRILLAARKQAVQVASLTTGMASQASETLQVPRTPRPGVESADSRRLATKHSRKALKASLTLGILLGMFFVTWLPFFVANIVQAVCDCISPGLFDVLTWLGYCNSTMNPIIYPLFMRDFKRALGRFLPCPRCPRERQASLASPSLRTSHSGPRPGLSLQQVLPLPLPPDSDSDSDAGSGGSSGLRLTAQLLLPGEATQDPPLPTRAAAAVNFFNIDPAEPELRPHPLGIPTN
The value called pKi is obtained by taking minus log10 of the concentration in mol/L.

For OC1(c2ccc(Cl)c(C(F)(F)F)c2)CCN(CCCC(c2ccccc2)c2ccccc2)CC1 , write its pKi.
5.77

Determine from records and report pKi for OC1(c2ccc(Cl)c(C(F)(F)F)c2)CCN(CCCCN(c2ccc(F)cc2)c2ccc(F)cc2)CC1
5.78

Assign pKi to the following record: OC1(c2ccc(Cl)c(C(F)(F)F)c2)CCN(CCCN(c2ccc(F)cc2)c2ccc(F)cc2)CC1
5.77

Provide pKi value for the following molecule: COc1ccc(N(CCCCN2CCC(O)(c3ccc(Cl)c(C(F)(F)F)c3)CC2)c2ccc(OC)cc2)cc1
5.85

Here's the next entry for you.
State, in one line, measured pKi of OC1(c2ccc(Cl)c(C(F)(F)F)c2)CCN(CCCCC(c2ccc(F)cc2)c2ccc(F)cc2)CC1
5.78
